# EXPERIMENT: Drug metabolism in rat liver microsomes at 5 uM after 15 mins
# Assay type: ADME, Microsome
# CONDITION CONTEXT: read-out: Drug metabolism
PROPERTY NAME: metabolised at 0.25 h, 5 µM (%)

[[record]]
mol_smiles = "CCCCn1ccc(-c2ccc(Oc3cc(C)nc(C)c3)c(F)c2)c(C#N)c1=O"
meas_value = 41

[[record]]
mol_smiles = "CC(C)CCn1ccc(-c2ccc(Oc3ccccn3)cc2)c(C#N)c1=O"
meas_value = 36

[[record]]
mol_smiles = "CCCCn1ccc(-c2ccc(Oc3ccnc(C)c3)cc2)c(C#N)c1=O"
meas_value = 44

[[record]]
mol_smiles = "Cc1cc(Oc2ccc(-c3ccn(CC4CCC4)c(=O)c3C#N)cc2)ccn1"
meas_value = 44

[[record]]
mol_smiles = "CCCCn1ccc(-c2ccc(Oc3cccnc3C)cc2)c(C#N)c1=O"
meas_value = 50

[[record]]
mol_smiles = "CC(C)CCn1ccc(-c2ccccc2)c(C#N)c1=O"
meas_value = 100

[[record]]
mol_smiles = "Cc1ncccc1Oc1ccc(-c2ccn(CCC(C)C)c(=O)c2C#N)cc1"
meas_value = 45

[[record]]
mol_smiles = "Cc1ccc(Oc2ccc(-c3ccn(CC4CC4)c(=O)c3C#N)cc2Cl)c(C)n1"
meas_value = 27

[[record]]
mol_smiles = "CCCCn1ccc(-c2ccc(Oc3ccnc(C)c3)cc2F)c(C#N)c1=O"
meas_value = 50

[[record]]
mol_smiles = "Cc1cc(Oc2ccc(-c3ccn(CCC(C)C)c(=O)c3C#N)cc2)ccn1"
meas_value = 47


[A] CC(C)CCn1ccc(-c2ccc(N3CCOCC3)cc2)c(C#N)c1=O
[B] CC(C)CCn1ccc(-c2ccc(OCC3CC3)c(Cl)c2)c(C#N)c1=O
[C] Cc1cc(Oc2ccc(-c3ccn(CC4CC4)c(=O)c3C#N)cc2)ccn1
[D] CC(C)CCn1ccc(-c2ccc(Oc3cccnc3)cc2)c(C#N)c1=O
Order each entry by recorded metabolised at 0.25 h, 5 µM, climbing from the minimum. Your task in answering is to list the labels in the requested order. C, D, A, B

----------
# TESTED ON: CYP1A2 (Homo sapiens, UniProt P05177)
# Sequence (P05177 whole entry): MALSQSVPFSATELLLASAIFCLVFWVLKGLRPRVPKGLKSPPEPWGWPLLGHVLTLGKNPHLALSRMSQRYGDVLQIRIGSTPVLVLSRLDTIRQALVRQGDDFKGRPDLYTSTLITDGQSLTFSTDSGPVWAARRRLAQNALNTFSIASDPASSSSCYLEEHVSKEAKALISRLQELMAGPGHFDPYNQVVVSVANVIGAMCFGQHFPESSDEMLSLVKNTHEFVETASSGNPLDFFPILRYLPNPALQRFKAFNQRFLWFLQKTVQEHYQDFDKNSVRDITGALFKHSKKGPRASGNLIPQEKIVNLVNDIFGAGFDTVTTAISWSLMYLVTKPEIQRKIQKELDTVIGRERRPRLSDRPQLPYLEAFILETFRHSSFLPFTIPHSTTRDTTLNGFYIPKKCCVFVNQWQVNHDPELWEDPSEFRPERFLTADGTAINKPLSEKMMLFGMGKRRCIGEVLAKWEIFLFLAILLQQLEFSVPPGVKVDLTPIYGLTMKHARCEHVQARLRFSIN
# EXPERIMENT: Inhibition of CYP1A2 at 5 uM
# Type: ADME
PROPERTY NAME: inhibition at 5 µM

Record lookup: for CYP1A2 (Homo sapiens, UniProt P05177), what inhibition at 5 µM belongs to Cc1cc(Oc2ccc(-c3ccn(CCC(C)C)c(=O)c3C#N)cc2)ccn1 ? < 50%

----------
# TESTED ON: hERG (Homo sapiens, UniProt Q12809)
# Sequence (Q12809 whole entry): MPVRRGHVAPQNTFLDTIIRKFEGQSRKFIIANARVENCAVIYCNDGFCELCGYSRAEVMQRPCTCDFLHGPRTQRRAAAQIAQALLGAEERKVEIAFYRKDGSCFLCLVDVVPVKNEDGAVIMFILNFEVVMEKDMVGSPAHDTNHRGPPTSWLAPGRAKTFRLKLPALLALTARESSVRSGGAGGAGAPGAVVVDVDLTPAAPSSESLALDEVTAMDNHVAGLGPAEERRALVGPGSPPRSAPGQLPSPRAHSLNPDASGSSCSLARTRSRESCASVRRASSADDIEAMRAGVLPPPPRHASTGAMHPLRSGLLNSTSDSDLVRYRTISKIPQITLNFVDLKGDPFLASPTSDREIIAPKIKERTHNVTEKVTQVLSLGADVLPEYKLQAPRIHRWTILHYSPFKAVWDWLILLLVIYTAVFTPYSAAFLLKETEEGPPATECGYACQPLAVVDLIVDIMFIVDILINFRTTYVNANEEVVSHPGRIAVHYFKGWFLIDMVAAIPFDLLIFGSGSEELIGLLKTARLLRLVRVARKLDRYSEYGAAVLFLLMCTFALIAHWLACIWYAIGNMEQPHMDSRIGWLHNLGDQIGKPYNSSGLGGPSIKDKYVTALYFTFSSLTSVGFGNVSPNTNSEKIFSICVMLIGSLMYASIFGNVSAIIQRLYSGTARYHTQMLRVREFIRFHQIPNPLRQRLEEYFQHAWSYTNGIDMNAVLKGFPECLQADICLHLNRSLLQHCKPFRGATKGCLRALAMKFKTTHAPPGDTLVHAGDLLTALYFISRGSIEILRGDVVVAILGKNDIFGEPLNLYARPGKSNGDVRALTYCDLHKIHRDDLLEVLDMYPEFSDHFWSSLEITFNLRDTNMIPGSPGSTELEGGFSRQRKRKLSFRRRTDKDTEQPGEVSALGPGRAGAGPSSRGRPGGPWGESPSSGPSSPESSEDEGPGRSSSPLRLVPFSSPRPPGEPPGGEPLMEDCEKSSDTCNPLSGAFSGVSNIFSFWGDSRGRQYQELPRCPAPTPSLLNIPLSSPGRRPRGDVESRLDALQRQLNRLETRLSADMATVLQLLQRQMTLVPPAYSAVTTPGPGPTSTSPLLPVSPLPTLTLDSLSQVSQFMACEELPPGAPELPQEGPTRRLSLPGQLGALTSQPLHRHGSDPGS
# EXPERIMENT: Inhibition of human ERG expressed in HEK293 cells assessed as whole cell current at 3 uM after 5 mins by automated patch-clamp assay relative to control
# Format: cell-based
# CONDITION CONTEXT: HEK293 cells expressing hERG
inhibition at 5 min, 3 µM values for the molecules below.
Note: unit % is implicit; provide only the numeric part.

Recorded inhibition at 5 min, 3 µM, per entry:
[[record]]
mol_smiles = "CC(C)CCn1ccc(-c2ccc(Nc3ccncc3)cc2)c(C#N)c1=O"
tested_on = "hERG (Homo sapiens, UniProt Q12809)"
meas_value = 91

[[record]]
mol_smiles = "Cc1ncccc1Oc1ccc(-c2ccn(CC3CC3)c(=O)c2C#N)cc1Cl"
tested_on = "hERG (Homo sapiens, UniProt Q12809)"
meas_value = 75

[[record]]
mol_smiles = "CCCCn1ccc(-c2ccc(Oc3ccnc(C)c3)c(F)c2)c(C#N)c1=O"
tested_on = "hERG (Homo sapiens, UniProt Q12809)"
meas_value = 21

[[record]]
mol_smiles = "CCCCn1ccc(-c2ccc(Oc3ccnc(C)c3)cc2)c(C#N)c1=O"
tested_on = "hERG (Homo sapiens, UniProt Q12809)"
meas_value = 53

[[record]]
mol_smiles = "CCCCn1ccc(-c2ccc(Oc3ccnc(C)c3)cc2F)c(C#N)c1=O"
tested_on = "hERG (Homo sapiens, UniProt Q12809)"
meas_value = 52

[[record]]
mol_smiles = "CC(C)CCn1ccc(-c2ccc(Oc3ccncc3)cc2)c(C#N)c1=O"
tested_on = "hERG (Homo sapiens, UniProt Q12809)"
meas_value = 52

[[record]]
mol_smiles = "Cc1ccc(Oc2ccc(-c3ccn(CC4CC4)c(=O)c3C#N)cc2Cl)c(C)n1"
tested_on = "hERG (Homo sapiens, UniProt Q12809)"
meas_value = 89

[[record]]
mol_smiles = "Cc1ccc(Oc2ccc(-c3ccn(CC4CC4)c(=O)c3C#N)cc2)c(C)n1"
tested_on = "hERG (Homo sapiens, UniProt Q12809)"
meas_value = 68


For the molecule shown here, CC(C)CCn1ccc(-c2ccc(Oc3ccccn3)cc2)c(C#N)c1=O , give the reported inhibition at 5 min, 3 µM. 33

What does the data say about its inhibition at 5 min, 3 µM? Entry: Cc1ncccc1Oc1ccc(-c2ccn(CCC(C)C)c(=O)c2C#N)cc1 36

Can you look up the measured inhibition at 5 min, 3 µM of CCCCn1ccc(-c2ccc(Oc3cc(C)nc(C)c3)c(F)c2)c(C#N)c1=O for me? 71
